Values were extracted from ChEMBL document CHEMBL1127024.

SYSTEM TESTED: GABA-A receptor; anion channel (Rattus norvegicus) (UniProt O09028+P15431+P18506+P18508+P19969+P20236+P23574+P23576+P28471+P28473+P30191+P62813+P63079+P63138+Q91ZM7+Q9ES14)
PROTOCOL DETAILS: Ratio of binding affinity against DI Bz receptor to that of DS Bz receptor
Format: protein-complex assay
Listing of entries alongside the reported Ratio.

>  <COMPOUND>
CCCOC(=O)c1ncn2c1CN(C)C(=O)c1sccc1-2

>  <Ratio>
27

$$$$
>  <COMPOUND>
CCOC(=O)c1ncn2c1CN(Cc1ccccc1)C(=O)c1c(Cl)cccc1-2

>  <Ratio>
51

$$$$
>  <COMPOUND>
CC(C)(C)OC(=O)c1ncn2c1C1CCN1C(=O)c1cc(F)ccc1-2 (stereo unspecified)

>  <Ratio>
9

$$$$
>  <COMPOUND>
COC(=O)c1ncn2c1CN(C)C(=O)c1sccc1-2

>  <Ratio>
58

$$$$
>  <COMPOUND>
COC(=O)c1ncn2c1CN(C)C(=O)c1ccccc1-2

>  <Ratio>
224

$$$$
>  <COMPOUND>
CCOC(=O)c1ncn2c1C1CCN1C(=O)c1c(Cl)cccc1-2 (stereo unspecified)

>  <Ratio>
170

$$$$
